Each recorded value in this set is attributed to ChEMBL document CHEMBL5247575.

# K annotations
# Test system: Bacteria
# Method Description: Inhibition of bacteria PDC-3 assessed as second order rate constant K2/K using nitrocefin as substrate

Field: example entries. Status: answers known.
                                   compound   measurement
0  O.O=C(NC1CCNCC1)[C@@H]1CC[C@@H]2CN1C(=O)N2OS(=O)(=O)O [RELEBACTAM]  4.6 10^4/M/s
1  O=C(NNC(=O)[C@@H]1CC[C@@H]2CN1C(=O)N2OS(=O)(=O)O)[C@@H]1CCNC1  6.3 10^5/M/s
2  O=C(NNC(=O)[C@@H]1CC[C@@H]2CN1C(=O)N2OS(=O)(=O)O)[C@@H]1CCCNC1 [ZIDEBACTAM]  4.8 10^5/M/s
3  NC(=O)[C@@H]1CC[C@@H]2CN1C(=O)N2OS(=O)(=O)[O-].[Na+] [AVIBACTAM SODIUM]  2.9 10^4/M/s

Please turn your attention to the following entry.
Name the reported K value associated with the compound N#C[C@@H]1CC[C@@H]2CN1C(=O)N2OS(=O)(=O)[O-].[Na+]
2.3 10^4/M/s

###

# Test system: Acinetobacter baumannii
# Method Description: Synergistic antibacterial activity against Acinetobacter baumannii PR323 producing OXA-24/40 assessed as cefepime MIC at 4 ug/ml by broth microdilution method
# Type: functional
# Measurement Parameters: dose 4 µg/ml
# MIC annotations

                                   molecule  measurement
0  O=C(NNC(=O)[C@@H]1CC[C@@H]2CN1C(=O)N2OS(=O)(=O)O)[C@@H]1CCCNC1      4 µg/mL
1  NC(=O)[C@@H]1CC[C@@H]2CN1C(=O)N2OS(=O)(=O)[O-].[Na+] [AVIBACTAM SODIUM]   > 16 µg/mL
2  O.O=C(NC1CCNCC1)[C@@H]1CC[C@@H]2CN1C(=O)N2OS(=O)(=O)O   > 16 µg/mL
3  N#C[C@@H]1CC[C@@H]2CN1C(=O)N2OS(=O)(=O)[O-].[Na+]   > 16 µg/mL

Param readout= MIC; system= Acinetobacter baumannii; entry= O=C(NNC(=O)[C@@H]1CC[C@@H]2CN1C(=O)N2OS(=O)(=O)O)[C@@H]1CCNC1 ; returns value.
4 µg/mL

###

# System: Acinetobacter baumannii
# Method Description: Synergistic antibacterial activity against Acinetobacter baumannii PR440 producing OXA-23/24/40 assessed as meropenem MIC at 4 ug/ml by broth microdilution method
# Type: functional
# Measurement Parameters: dose 4 µg/ml
Parameter: MIC

In [3]: df
Out[3]:
                                   compound             assay_target  parameter  measurement
0  N#C[C@@H]1CC[C@@H]2CN1C(=O)N2OS(=O)(=O)[O-].[Na+]  Acinetobacter baumannii        MIC      4 µg/mL
1  O=C(NNC(=O)[C@@H]1CC[C@@H]2CN1C(=O)N2OS(=O)(=O)O)[C@@H]1CCNC1  Acinetobacter baumannii        MIC   > 16 µg/mL
2  O=C(NNC(=O)[C@@H]1CC[C@@H]2CN1C(=O)N2OS(=O)(=O)O)[C@@H]1CCCNC1  Acinetobacter baumannii        MIC   > 16 µg/mL
3  O.O=C(NC1CCNCC1)[C@@H]1CC[C@@H]2CN1C(=O)N2OS(=O)(=O)O  Acinetobacter baumannii        MIC   > 16 µg/mL

Name the reported MIC value associated with the compound NC(=O)[C@@H]1CC[C@@H]2CN1C(=O)N2OS(=O)(=O)[O-].[Na+] [AVIBACTAM SODIUM]
> 16 µg/mL
